biological target: Protein cereblon/CREB-binding protein (Homo sapiens, UniProt Q92793+Q96SW2); assay: PROTAC activity at CBP/CRBN in human VCaP cells assessed as maximal protein degradation at 1 uM incubated for 4 hrs by Western blot analysis relative to control; assay type: cell-based
Sequence (Q92793 2-2442 limits assumed): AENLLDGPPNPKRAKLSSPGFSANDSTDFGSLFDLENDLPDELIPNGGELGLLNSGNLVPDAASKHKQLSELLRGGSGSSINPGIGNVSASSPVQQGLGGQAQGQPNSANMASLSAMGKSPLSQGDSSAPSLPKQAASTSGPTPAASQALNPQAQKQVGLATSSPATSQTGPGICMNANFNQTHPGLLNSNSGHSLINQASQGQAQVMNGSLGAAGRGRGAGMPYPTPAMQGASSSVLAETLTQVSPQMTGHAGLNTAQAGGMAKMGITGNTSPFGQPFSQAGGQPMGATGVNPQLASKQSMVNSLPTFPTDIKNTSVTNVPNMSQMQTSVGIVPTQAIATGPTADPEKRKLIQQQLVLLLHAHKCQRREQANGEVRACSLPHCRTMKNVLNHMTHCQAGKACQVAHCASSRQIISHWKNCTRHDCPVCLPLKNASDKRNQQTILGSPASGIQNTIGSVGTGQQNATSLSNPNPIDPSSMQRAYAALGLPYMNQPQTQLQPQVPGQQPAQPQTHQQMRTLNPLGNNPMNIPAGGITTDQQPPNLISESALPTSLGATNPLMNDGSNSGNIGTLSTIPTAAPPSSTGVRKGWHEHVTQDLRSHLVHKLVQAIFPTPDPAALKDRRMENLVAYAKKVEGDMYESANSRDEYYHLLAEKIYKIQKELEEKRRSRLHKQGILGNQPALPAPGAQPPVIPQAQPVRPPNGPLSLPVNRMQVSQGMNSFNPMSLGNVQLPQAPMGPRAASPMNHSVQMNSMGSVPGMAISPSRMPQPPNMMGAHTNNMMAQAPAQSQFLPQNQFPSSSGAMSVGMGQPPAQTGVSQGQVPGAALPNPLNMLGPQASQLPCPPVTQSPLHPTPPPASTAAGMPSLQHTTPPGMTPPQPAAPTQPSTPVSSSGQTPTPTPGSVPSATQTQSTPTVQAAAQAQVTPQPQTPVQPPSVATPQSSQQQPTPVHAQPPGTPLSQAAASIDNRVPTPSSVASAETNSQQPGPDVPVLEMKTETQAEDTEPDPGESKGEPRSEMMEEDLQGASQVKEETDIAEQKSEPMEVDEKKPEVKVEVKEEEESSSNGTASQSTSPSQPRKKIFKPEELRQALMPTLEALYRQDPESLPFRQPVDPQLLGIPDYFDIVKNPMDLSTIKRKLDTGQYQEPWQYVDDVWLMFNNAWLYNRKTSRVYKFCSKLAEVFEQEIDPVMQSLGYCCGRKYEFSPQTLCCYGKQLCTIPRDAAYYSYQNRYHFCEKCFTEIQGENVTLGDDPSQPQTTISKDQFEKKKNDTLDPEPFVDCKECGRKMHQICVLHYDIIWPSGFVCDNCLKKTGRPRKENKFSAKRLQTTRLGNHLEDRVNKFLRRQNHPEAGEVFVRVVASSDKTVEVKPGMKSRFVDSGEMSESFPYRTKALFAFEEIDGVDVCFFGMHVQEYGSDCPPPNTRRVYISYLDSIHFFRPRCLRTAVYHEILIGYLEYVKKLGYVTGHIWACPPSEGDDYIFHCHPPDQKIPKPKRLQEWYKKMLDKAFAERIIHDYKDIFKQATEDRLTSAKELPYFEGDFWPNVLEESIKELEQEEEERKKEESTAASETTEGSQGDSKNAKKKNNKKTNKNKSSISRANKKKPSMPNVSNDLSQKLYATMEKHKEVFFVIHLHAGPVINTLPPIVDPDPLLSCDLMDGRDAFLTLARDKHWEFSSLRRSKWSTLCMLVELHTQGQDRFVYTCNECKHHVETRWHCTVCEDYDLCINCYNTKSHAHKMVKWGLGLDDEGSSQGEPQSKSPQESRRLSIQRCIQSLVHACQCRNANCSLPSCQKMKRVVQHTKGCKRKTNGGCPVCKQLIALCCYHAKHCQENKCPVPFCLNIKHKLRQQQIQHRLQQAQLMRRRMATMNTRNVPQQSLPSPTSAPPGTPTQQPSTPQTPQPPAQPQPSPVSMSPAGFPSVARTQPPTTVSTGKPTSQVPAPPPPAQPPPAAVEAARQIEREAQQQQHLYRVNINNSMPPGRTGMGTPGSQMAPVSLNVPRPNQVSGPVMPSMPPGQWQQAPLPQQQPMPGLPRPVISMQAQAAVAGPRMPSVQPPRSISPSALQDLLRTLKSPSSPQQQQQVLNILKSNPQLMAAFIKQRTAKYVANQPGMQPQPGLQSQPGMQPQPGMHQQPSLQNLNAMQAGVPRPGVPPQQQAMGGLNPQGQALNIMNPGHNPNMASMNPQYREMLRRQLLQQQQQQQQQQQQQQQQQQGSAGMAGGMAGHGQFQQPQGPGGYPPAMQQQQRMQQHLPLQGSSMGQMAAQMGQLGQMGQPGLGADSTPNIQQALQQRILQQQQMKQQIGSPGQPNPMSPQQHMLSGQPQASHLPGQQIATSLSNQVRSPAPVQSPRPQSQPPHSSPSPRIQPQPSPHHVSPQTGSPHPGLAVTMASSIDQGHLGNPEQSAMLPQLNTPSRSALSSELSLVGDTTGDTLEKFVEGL
Sequence (Q96SW2 whole entry partner): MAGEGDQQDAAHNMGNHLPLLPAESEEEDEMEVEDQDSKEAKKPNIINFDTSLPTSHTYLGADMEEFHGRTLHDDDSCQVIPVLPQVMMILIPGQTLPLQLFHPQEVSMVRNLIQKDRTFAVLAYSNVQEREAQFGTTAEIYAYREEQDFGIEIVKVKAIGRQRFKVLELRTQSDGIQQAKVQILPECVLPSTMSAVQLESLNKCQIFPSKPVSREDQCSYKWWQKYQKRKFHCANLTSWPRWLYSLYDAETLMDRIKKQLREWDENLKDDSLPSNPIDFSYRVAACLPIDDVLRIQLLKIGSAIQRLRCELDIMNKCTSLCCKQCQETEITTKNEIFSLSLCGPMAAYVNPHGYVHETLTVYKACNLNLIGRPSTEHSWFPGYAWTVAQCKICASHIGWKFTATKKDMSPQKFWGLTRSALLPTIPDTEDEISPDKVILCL
test readout: Emax

[
  {
    "compound": "CC(=O)N1CCc2c(c(N3CCCc4cc(-c5cnn(C)c5)c(C(F)F)cc43)nn2C2CCN(C(=O)CCCCNc3cccc4c3C(=O)N(C3CCC(=O)NC3=O)C4=O)CC2)C1 (centres undefined)",
    "measured on": "Protein cereblon/CREB-binding protein (Homo sapiens, UniProt Q92793+Q96SW2)",
    "test readout": "Emax",
    "measurement": "> 95%"
  },
  {
    "compound": "CC(=O)N1CCc2c(c(N3CCCc4cc(-c5cnn(C)c5)c(C(F)F)cc43)nn2C2CCN(C(=O)CCCCCNc3cccc4c3C(=O)N(C3CCC(=O)NC3=O)C4=O)CC2)C1 (centres undefined)",
    "measured on": "Protein cereblon/CREB-binding protein (Homo sapiens, UniProt Q92793+Q96SW2)",
    "test readout": "Emax",
    "measurement": "115%"
  },
  {
    "compound": "CC(=O)N1CCc2c(c(N3CCCc4cc(-c5cnn(C)c5)c(C(F)F)cc43)nn2C2CCN(C(=O)CCCCNc3ccc4c(c3)C(=O)N(C3CCC(=O)NC3=O)C4=O)CC2)C1 (centres undefined)",
    "measured on": "Protein cereblon/CREB-binding protein (Homo sapiens, UniProt Q92793+Q96SW2)",
    "test readout": "Emax",
    "measurement": "> 95%"
  },
  {
    "compound": "CC(=O)N1CCc2c(c(N3CCCc4cc(-c5cnn(C)c5)c(C(F)F)cc43)nn2C2CCN(C(=O)CNc3ccc4c(c3)C(=O)N(C3CCC(=O)NC3=O)C4=O)CC2)C1 (centres undefined)",
    "measured on": "Protein cereblon/CREB-binding protein (Homo sapiens, UniProt Q92793+Q96SW2)",
    "test readout": "Emax",
    "measurement": "> 95%"
  },
  {
    "compound": "CC(=O)N1CCc2c(c(N3CCCc4cc(-c5cnn(C)c5)c(C(F)F)cc43)nn2C2CCN(CC3CN(c4ccc5c(c4)C(=O)N(C4CCC(=O)NC4=O)C5=O)C3)CC2)C1 (centres undefined)",
    "measured on": "Protein cereblon/CREB-binding protein (Homo sapiens, UniProt Q92793+Q96SW2)",
    "test readout": "Emax",
    "measurement": "> 95%"
  },
  {
    "compound": "CC(=O)N1CCc2c(c(N3CCCc4cc(-c5cnn(C)c5)c(C(F)F)cc43)nn2C2CCN(C3CN(c4ccc5c(c4)C(=O)N(C4CCC(=O)NC4=O)C5=O)C3)CC2)C1 (centres undefined)",
    "measured on": "Protein cereblon/CREB-binding protein (Homo sapiens, UniProt Q92793+Q96SW2)",
    "test readout": "Emax",
    "measurement": "> 95%"
  },
  {
    "compound": "CC(=O)N1CCc2c(c(N3CCCc4cc(-c5cnn(C)c5)c(C(F)F)cc43)nn2C2CCN(C(=O)Nc3cccc4c3C(=O)N(C3CCC(=O)NC3=O)C4=O)CC2)C1 (centres undefined)",
    "measured on": "Protein cereblon/CREB-binding protein (Homo sapiens, UniProt Q92793+Q96SW2)",
    "test readout": "Emax",
    "measurement": "< 50%"
  },
  {
    "compound": "CC(=O)N1CCc2c(c(N3CCCc4cc(-c5cnn(C)c5)c(C(F)F)cc43)nn2[C@H]2CC[C@H](CN3CCN(c4cc5c(cc4F)C(=O)N(C4CCC(=O)NC4=O)C5=O)CC3)CC2)C1 (some centres undefined)",
    "measured on": "Protein cereblon/CREB-binding protein (Homo sapiens, UniProt Q92793+Q96SW2)",
    "test readout": "Emax",
    "measurement": "94%"
  },
  {
    "compound": "CC(=O)N1CCc2c(c(N3CCCc4cc(-c5cnn(C)c5)c(C(F)F)cc43)nn2[C@H]2CC[C@H](CN3CCN(c4cccc5c4C(=O)N(C4CCC(=O)NC4=O)C5=O)CC3)CC2)C1 (some centres undefined)",
    "measured on": "Protein cereblon/CREB-binding protein (Homo sapiens, UniProt Q92793+Q96SW2)",
    "test readout": "Emax",
    "measurement": "53%"
  }
]
